System: Z138 cells
METHOD_DESCRIPTION: MTT cell proliferation assay, Z138 cells
Assay type: cell-based
STUDY_CONDITIONS: Homo sapiens, Z-138, incubation approximately 64-72 hours
Reported IC50 values for the following compounds.

Previously resolved entries follow.
{"columns": ["COMPOUND", "READOUT", "OBSERVED_MEASUREMENT"],
 "data": [
  ["CC(C)(CNC(=O)/C=C/c1ccc(N)nc1)Oc1cc(Cl)cc(-c2ccc(C(=O)N3CCOCC3)cc2)c1 [Compound 347]", "IC50", "< 100 nM"],
  ["Nc1ccc(/C=C/C(=O)NCCOc2ccc(-c3ccc(C(=O)N4CCC(F)(F)CC4)cn3)cc2C(F)(F)F)cn1 [Compound 355]", "IC50", "< 100 nM"],
  ["Nc1ccc(CNC(=O)/C=C/COc2ccc(-c3ccc(C(=O)N4CCC(F)(F)CC4)cn3)cc2C(F)(F)F)cn1 [Compound 353]", "IC50", "100 to 5000 nM"],
  ["[2H]C([2H])(CNC(=O)/C=C/c1ccc(N)nc1)Oc1ccc(F)c(-c2ccc(C(=O)N3CCOCC3)cc2)c1 [Compound 343]", "IC50", "100 to 5000 nM"]
]}

Query: Which value of IC50 has been reported for Nc1ccc(/C=C/C(=O)NCCOc2ccc(-c3nnc(C(=O)N4CCOCC4)o3)cc2Cl)cn1 [Compound 351] in the records?
Response: 100 to 5000 nM

Query: Which value of IC50 has been reported for CN1CCN(C(=O)c2ccc(-c3ccc(OCCNC(=O)/C=C/c4ccc(N)nc4)c(Cl)c3)cc2)CC1 [Compound 313] in the records?
Response: < 100 nM

Query: Which value of IC50 has been reported for Nc1ccc(/C=C/C(=O)NCCCOc2cc(Cl)cc(-c3ccc(C(=O)N4CCOCC4)cc3)c2)cn1 [Compound 345] in the records?
Response: < 100 nM
